# PROTOCOL_DETAILS: Half life in human plasma
# Format: ADME, cell-free
READOUT: half-life (h)

# COMPOUND, RESULT
measured = [
    ("O=C(CNc1ncnc2[nH]cc(C(=O)c3ccc(Oc4ccccc4)cc3Cl)c12)NCCOCCOCCOCCOCCOCCNc1cccc2c1C(=O)N(C1CCC(=O)NC1=O)C2=O (configuration not stated)", 5.34),
    ("O=C1CCC(N2C(=O)c3cccc(NCCOCCOCCOCCOCCOCCNC(=O)N[C@H]4CC[C@@H](Nc5ncnc6[nH]cc(C(=O)c7ccc(Oc8ccccc8)cc7Cl)c56)CC4)c3C2=O)C(=O)N1 (some centres not stated)", 3.55),
]

----------
# SYSTEM_NAME: Protein cereblon/Tyrosine-protein kinase BTK (Homo sapiens, UniProt Q06187+Q96SW2)
# Sequence (Q06187 2-659 limits assumed): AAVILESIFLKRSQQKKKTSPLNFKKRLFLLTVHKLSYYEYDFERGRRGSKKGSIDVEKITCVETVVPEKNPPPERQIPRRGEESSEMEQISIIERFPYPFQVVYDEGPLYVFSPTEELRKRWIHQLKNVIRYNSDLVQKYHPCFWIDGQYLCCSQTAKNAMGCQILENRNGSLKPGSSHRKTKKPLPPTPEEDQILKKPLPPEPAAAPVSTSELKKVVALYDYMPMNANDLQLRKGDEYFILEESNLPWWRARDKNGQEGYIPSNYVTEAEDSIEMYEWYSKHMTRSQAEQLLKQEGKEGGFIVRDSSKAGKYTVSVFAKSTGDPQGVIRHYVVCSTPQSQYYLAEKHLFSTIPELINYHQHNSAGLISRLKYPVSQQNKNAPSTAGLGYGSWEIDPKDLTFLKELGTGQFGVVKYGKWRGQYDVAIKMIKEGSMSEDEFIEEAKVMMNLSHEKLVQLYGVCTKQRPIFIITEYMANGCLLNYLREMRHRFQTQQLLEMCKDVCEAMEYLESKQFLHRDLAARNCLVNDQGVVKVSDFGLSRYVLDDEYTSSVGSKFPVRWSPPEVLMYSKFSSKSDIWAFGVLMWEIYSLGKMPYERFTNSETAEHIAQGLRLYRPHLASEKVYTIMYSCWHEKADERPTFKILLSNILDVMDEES
# Sequence (Q96SW2 whole entry partner): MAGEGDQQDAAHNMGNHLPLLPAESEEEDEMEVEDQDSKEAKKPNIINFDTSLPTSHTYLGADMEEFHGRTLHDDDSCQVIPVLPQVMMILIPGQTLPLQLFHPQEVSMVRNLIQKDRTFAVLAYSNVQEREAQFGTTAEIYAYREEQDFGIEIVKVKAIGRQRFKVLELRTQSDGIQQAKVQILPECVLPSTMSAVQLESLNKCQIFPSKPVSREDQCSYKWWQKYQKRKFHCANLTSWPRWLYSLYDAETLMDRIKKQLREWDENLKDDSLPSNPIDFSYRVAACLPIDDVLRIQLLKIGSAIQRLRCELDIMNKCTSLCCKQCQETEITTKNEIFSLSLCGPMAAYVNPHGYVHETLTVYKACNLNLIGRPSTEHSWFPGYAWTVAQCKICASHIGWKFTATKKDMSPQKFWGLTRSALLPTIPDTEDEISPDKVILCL
# PROTOCOL_DETAILS: Protac activity at BTK/CRBN in human JeKo-1 cells assessed as maximal BTK degradation measured after 1 hr by Western blot analysis relative to control
# Assay type: cell-based

# COMPOUND, %max [%]
records = [
    ("O=C1CCC(N2C(=O)c3cccc(NCCOCCOCCOCCNC(=O)N[C@H]4CC[C@@H](Nc5ncnc6[nH]cc(C(=O)c7ccc(Oc8ccccc8)cc7Cl)c56)CC4)c3C2=O)C(=O)N1 (some centres undefined)", 76.9),
    ("O=C(CNc1ncnc2[nH]cc(C(=O)c3ccc(Oc4ccccc4)cc3Cl)c12)NCCOCCOCCOCCOCCOCCOCCNc1cccc2c1C(=O)N(C1CCC(=O)NC1=O)C2=O (centres undefined)", 92.4),
    ("O=C(CNc1ncnc2[nH]cc(C(=O)c3ccc(Oc4ccccc4)cc3Cl)c12)NCCOCCOCCOCCOCCNc1cccc2c1C(=O)N(C1CCC(=O)NC1=O)C2=O (centres undefined)", 66.5),
    ("O=C1CCC(N2C(=O)c3cccc(NCCOCCOCCOCCOCCNC(=O)N[C@H]4CC[C@@H](Nc5ncnc6[nH]cc(C(=O)c7ccc(Oc8ccccc8)cc7Cl)c56)CC4)c3C2=O)C(=O)N1 (some centres undefined)", 78),
]

----------
# key: entry, value: inhibition
# SYSTEM_NAME: Tyrosine-protein kinase BTK (Homo sapiens, UniProt Q06187)
# Sequence (Q06187 whole entry, the tested form may be a part): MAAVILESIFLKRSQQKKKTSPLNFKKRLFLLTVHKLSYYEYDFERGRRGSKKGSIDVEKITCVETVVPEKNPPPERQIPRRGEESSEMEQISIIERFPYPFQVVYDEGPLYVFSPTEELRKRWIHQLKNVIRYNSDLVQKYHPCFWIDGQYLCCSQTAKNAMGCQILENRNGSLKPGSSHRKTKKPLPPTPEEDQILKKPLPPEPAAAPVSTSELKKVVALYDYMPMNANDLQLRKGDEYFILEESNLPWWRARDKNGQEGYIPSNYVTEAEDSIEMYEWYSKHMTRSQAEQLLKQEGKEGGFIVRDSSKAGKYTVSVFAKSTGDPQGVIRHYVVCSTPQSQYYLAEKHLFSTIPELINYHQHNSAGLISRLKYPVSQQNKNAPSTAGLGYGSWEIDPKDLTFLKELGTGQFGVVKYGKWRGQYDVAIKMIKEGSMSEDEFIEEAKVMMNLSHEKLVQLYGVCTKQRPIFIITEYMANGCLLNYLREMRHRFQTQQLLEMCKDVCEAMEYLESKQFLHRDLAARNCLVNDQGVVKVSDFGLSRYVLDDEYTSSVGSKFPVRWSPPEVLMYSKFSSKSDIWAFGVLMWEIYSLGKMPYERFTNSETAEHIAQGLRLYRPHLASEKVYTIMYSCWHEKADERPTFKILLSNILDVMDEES
# PROTOCOL_DETAILS: Inhibition of full length N-terminal GST fusion tagged human BTK expressed in baculovirus expression system at 50 nM using FAM-P2 peptide solution as substrate incubated for 10 mins in presence of ATP by microplate reader assay relative to control

# MOLECULE, inhibition / %
rows = [
    ("O=C(CNc1ncnc2[nH]cc(C(=O)c3ccc(Oc4ccccc4)cc3Cl)c12)NCCOCCOCCOCCOCCOCCNc1cccc2c1C(=O)N(C1CCC(=O)NC1=O)C2=O (stereo unspecified)", 5.9),
    ("O=C1CCC(N2C(=O)c3cccc(NCCOCCOCCNC(=O)N[C@H]4CC[C@@H](Nc5ncnc6[nH]cc(C(=O)c7ccc(Oc8ccccc8)cc7Cl)c56)CC4)c3C2=O)C(=O)N1 (stereo partly specified)", 82.1),
    ("CCOC(=O)CNc1ncnc2[nH]cc(C(=O)c3ccc(Oc4ccccc4)cc3Cl)c12", 4.9),
    ("O=C(CNc1ncnc2[nH]cc(C(=O)c3ccc(Oc4ccccc4)cc3Cl)c12)NCCOCCOCCNc1cccc2c1C(=O)N(C1CCC(=O)NC1=O)C2=O (stereo unspecified)", 7.5),
    ("O=C1CCC(N2C(=O)c3cccc(NCCOCCOCCOCCOCCNC(=O)N[C@H]4CC[C@@H](Nc5ncnc6[nH]cc(C(=O)c7ccc(Oc8ccccc8)cc7Cl)c56)CC4)c3C2=O)C(=O)N1 (stereo partly specified)", 32.6),
    ("O=C(CNc1ncnc2[nH]cc(C(=O)c3ccc(Oc4ccccc4)cc3Cl)c12)NCCOCCOCCOCCNc1cccc2c1C(=O)N(C1CCC(=O)NC1=O)C2=O (stereo unspecified)", 8.6),
]
